Tested on: green peach aphid (Myzus persicae)
Test: Myzus test
Format: in vivo
Conditions: 500 ppm, cabbage leaves dipped
Method: Myzus Test Solvent: 7 parts by weight of dimethylformamide Emulsifier: 2 parts by weight of alkylaryl polyglycol ether To produce a suitable preparation of active compound, 1 part by weight of active compound is mixed with the stated amounts of solvent and emulsifier, and the concentrate is diluted with emulsifier-containing water to the desired concentration. […] After the desired period of time, the kill in % is determined. […]
In this section, each of the molecules is paired with its reported Kill rate in % after 6 d.
API: value field is a number in %; no unit string.

Example entries and their recorded answers appear below.
# molecule, recorded_endpoint, unit_abbrev, experimental_result
records = [
    ("Cc1ccc(-c2ccc(Cl)cc2)cc1C1(Cl)C(=O)NC2(CCOCC2)C1=O (stereo not shown)", "Kill rate in % after 6 d", "%", 100),
    ("COC1CCC2(CC1)NC(=O)C(Cl)(c1cc(-c3ccc(Cl)c(Cl)c3)ccc1C)C2=O (stereo not shown)", "Kill rate in % after 6 d", "%", 100),
    ("Cc1cc(C)c(C2(Cl)C(=O)NC3(CCOCC3)C2=O)cc1-c1ccc(Cl)cc1 (stereo not shown)", "Kill rate in % after 6 d", "%", 98),
    ("Cc1cc(C)c(C2(Cl)C(=O)NC3(CCCOC3)C2=O)cc1-c1ccc(Cl)cc1 (stereo not shown)", "Kill rate in % after 6 d", "%", 100),
    ("Cc1ccc(-c2ccc(Cl)cc2)cc1C1(Cl)C(=O)NC(C)(C)C1=O (stereo not shown)", "Kill rate in % after 6 d", "%", 95),
]

Query: Recall the reported Kill rate in % after 6 d of Cc1ccc(-c2ccc(Cl)c(Cl)c2)cc1C1(Cl)C(=O)NC(C)(C)C1=O (stereo not shown) on green peach aphid (Myzus persicae) and write it down.
Result: 95

Query: Recall the reported Kill rate in % after 6 d of CCOC1CCC2(CC1)NC(=O)C(Cl)(c1c(C)cc(-c3ccc(Cl)cc3)cc1Cl)C2=O (stereo not shown) on green peach aphid (Myzus persicae) and write it down.
Result: 95
